test system: F. culmorum conidia

{"Molecule": "C=C(COC(=O)C/C(C)=C/[C@@H](O)[C@@H]1OC2CC/C(Cl)=C/C/C=C(/C)[C@@H](OC(C)=O)CC(=O)OC1C2)C(C)=O (stereo partly shown) [Haterumalide B]", "MIC": "1 µg/mL"}
{"Molecule": "CC(=O)O[C@H]1CC(=O)OC2CC(CC/C(Cl)=C/C/C=C\\1C)O[C@H]2[C@H](O)/C=C(\\C)CC(=O)O (stereo partly shown) [Haterumalide A]", "MIC": "2 µg/mL"}
{"Molecule": "C/C1=C/C/C=C(\\Cl)CCC2CC(OC(=O)C[C@@H]1O)[C@H]([C@H](O)/C=C(\\C)CC(=O)O)O2 (stereo partly shown) [Haterumalide E]", "MIC": "5 µg/mL"}
{"Molecule": "O=[N+]([O-])c1c(Cl)cccc1-c1c[nH]cc1Cl [Pyrrolnitrin, pyrrolnitrin, reference compound]", "MIC": "0.06 µg/mL"}
